test: Human HepG2 cell viability assay in 384 well format; type: toxicity, cell-based; parameters: dose 125 nL, time 70.5 hour; concentration not given beside the values; conditions: HepG2 cells, read-out: Inhibition
VALUE KIND: cytotoxicity at 70.5 h (%)

{"columns": ["MOLECULE", "VALUE UNITS", "VAL"],
 "data": [
  ["CCc1nc(CCNc2ncccc2C#N)sc1C", "%", -8.12],
  ["Cc1ncsc1C(=O)N1CCC(O)(CN2CCc3ccccc3C2)C1 (stereo unspecified)", "%", 10.1],
  ["CN1CC(=O)N(C2CCNC2)Cc2c(NC3CCCC3)ncnc21 (stereo unspecified)", "%", -5.19],
  ["N#Cc1ccc(F)c(CN2CCCCC2Cn2cccn2)c1 (stereo unspecified)", "%", 0.631],
  ["Cc1ccc(CCNc2nccc(-c3cc(C(=O)O)ccn3)n2)o1", "%", -6.22],
  ["Cc1cc(C)c(CNC(=O)N(C)Cc2ccc3c(c2)OCO3)c(=O)[nH]1", "%", -3.96]
]}

---

test: Human HepG2 cell viability assay in 384 well format; assay type: toxicity, cell-based; design: dose 125 nL, time 70.5 hour; concentration not given beside the values; conditions: HepG2 cells, read-out: Inhibition
Attribute: cytotoxicity at 70.5 h

{"columns": ["COMPOUND", "cytotoxicity at 70.5 h, %"],
 "data": [
  ["COc1cc(C(=O)N2CCC(O)(CN3CCOCC3)C(C)(C)C2)ccn1 (stereo not given)", -0.646],
  ["O=S(=O)(NCc1ccnc(-n2ccnc2)c1)c1cncc(F)c1", -1.94],
  ["Cc1nn(C)c(N(C)C)c1CNCCC(=O)NC1CCCC1", 3.14],
  ["CC(C)CNC(=O)N1C[C@H]2C[C@H](C(=O)NCc3ccccc3)[C@@H](C1)O2", 13.9],
  ["CN(CC1(CO)CCCC1)C(=O)c1cc(COc2ccccc2F)[nH]n1", -6.26]
]}

---

Attribute: cytotoxicity at 70.5 h
assay: Human HepG2 cell viability assay in 384 well format; type: toxicity, cell-based; set-up: dose 125 nL, time 70.5 hour; concentration not given beside the values; conditions: HepG2 cells, read-out: Inhibition
VALUE KIND: cytotoxicity at 70.5 h (%)

{"columns": ["COMPOUND", "VALUE UNITS", "VAL"],
 "data": [
  ["CC(C)c1noc(CCCC(=O)N2CCN(Cc3ccccn3)CC2)n1", "%", -11.6],
  ["CC(C)c1ccc(CN2CCC(CNS(=O)(=O)C3CC3)C2)cc1 (stereo unspecified)", "%", -3.87],
  ["c1cc(CN2CCC3(CC2)COC(COCC2CC2)C3)co1 (stereo unspecified)", "%", -20.3],
  ["CCCC(=O)N1CCCC(c2cc3cccnc3c(O)n2)C1 (stereo unspecified)", "%", -13.1],
  ["CNC(=O)[C@@H]1C[C@@H](NC(=O)c2cn(C)nc2C)CN1Cc1sccc1C", "%", -2.42],
  ["Cc1nccn1-c1cc(CNC(=O)NCC2CCCO2)ccn1 (stereo unspecified)", "%", -0.7],
  ["Fc1cccc(N2CCOC3(CCCN(c4cnccn4)C3)C2)c1 (stereo unspecified)", "%", -7.3],
  ["Cc1cc(C(F)(F)F)cc(N2CCC3(CCC(=O)N(CCO)C3)CC2)n1", "%", -4.65],
  ["O=C(NCc1ccco1)N1CCC(n2ccc(C(F)(F)F)n2)CC1", "%", -82.9],
  ["CC(=O)N1N=C(c2ccccc2)OC1C(=O)NCCc1cccc(F)c1 (stereo unspecified)", "%", 4.79],
  ["Cc1cnc(NCc2ccc(S(=O)(=O)N(C)C(C)C)cc2)nc1C", "%", -11.1]
]}

---

assay: Human HepG2 cell viability assay in 384 well format; assay type: toxicity, cell-based; design: dose 125 nL, time 70.5 hour; concentration not given beside the values; conditions: HepG2 cells, read-out: Inhibition

{"columns": ["MOLECULE", "cytotoxicity at 70.5 h, %"],
 "data": [
  ["Cn1cc(CN2CCC3(CCCN3S(C)(=O)=O)CC2)cn1", 12.4],
  ["Cc1cccc(S(=O)(=O)N2C[C@H]3C[C@H](C(=O)NC4CCC4)[C@@H](C2)O3)c1", -10.5],
  ["Cc1c(C(=O)NC2(C#N)CCSC2)cnn1-c1ccccc1Cl (stereo not given)", 1.06],
  ["CC(CNC(=O)c1nc(N2CCOCC2)ncc1Cl)c1ccccc1 (stereo not given)", 7.86],
  ["O=C(NC1CC1)[C@@H]1C[C@@H]2CCN(Cc3ccccc3)C[C@H]2O1", -9.32]
]}

---

test: Human HepG2 cell viability assay in 384 well format; type: toxicity, cell-based; set-up: dose 125 nL, time 70.5 hour; concentration not given beside the values; conditions: HepG2 cells, read-out: Inhibition

{"columns": ["COMPOUND", "VALUE UNITS", "cytotoxicity at 70.5 h"],
 "data": [
  ["Cc1ccccc1N1CCN(c2nc(N(C)C)nc3c2CCNC3)CC1", "%", 33.6],
  ["NS(=O)(=O)N1CCC(CSc2ccccc2)C1 (stereo unspecified)", "%", -9.2],
  ["CC(C)c1ccc(OCC(=O)NS(=O)(=O)c2cccnc2)cc1", "%", -0.457],
  ["CC(=O)N1CCC(Oc2ccc(C#N)cc2)CC1", "%", 9.28],
  ["CCN(CC)c1ncccc1CNC(=O)c1cnn(CC)c1", "%", -3.9],
  ["Cc1nccn1-c1ccc(CNC(=O)c2ccc[nH]2)cn1", "%", -6.51],
  ["CC(C)C(=O)N1CCC12CCCN(C(=O)c1ccccc1)C2 (stereo unspecified)", "%", -2.99],
  ["COCC1CC2(CCN(C(=O)c3cccn3C)CC2)CN1C(C)C (stereo unspecified)", "%", -0.557],
  ["Cc1nc2ccccc2n1Cc1cc(C(=O)NC2CCOC2)no1 (stereo unspecified)", "%", -18.8],
  ["O=C(c1ccccn1)N1CCCC(c2nccn2Cc2ccncc2)C1 (stereo unspecified)", "%", -4.69],
  ["CC(C)NC(=O)[C@@H]1CC[C@@H]2[C@@H](CCN2Cc2cn(C)c3ccccc23)O1", "%", -2.33]
]}

---

test: Human HepG2 cell viability assay in 384 well format; type: toxicity, cell-based; parameters: dose 125 nL, time 70.5 hour; concentration not given beside the values; details: HepG2 cells, read-out: Inhibition
Attribute: cytotoxicity at 70.5 h

{"columns": ["MOLECULE", "cytotoxicity at 70.5 h"],
 "data": [
  ["CC(C)C1SCC(=O)Nc2c1cnn2C(C)C (stereo unspecified)", "-23.1%"],
  ["Cc1cccc2ncn(C(C)Cn3cccn3)c(=O)c12 (stereo unspecified)", "-10.4%"],
  ["COCCNC(=O)c1cc(S(=O)(=O)N2CCCCCC2)cs1", "15.3%"],
  ["Cc1cc(C)n(C2CN(CC(=O)N3CCOCC3)C2)n1", "4.72%"],
  ["NC(=O)[C@@H]1Cc2ccccc2CN1CCC(=O)N1CCOCC1", "-5.31%"],
  ["Cn1c(C(=O)N2CCC(C(=O)N3CCCC3)CC2)c(Cl)c2ccccc21", "-9.31%"]
]}

---

Attribute: cytotoxicity at 70.5 h
test: Human HepG2 cell viability assay in 384 well format; assay type: toxicity, cell-based; design: dose 125 nL, time 70.5 hour; concentration not given beside the values; settings: HepG2 cells, read-out: Inhibition

{"columns": ["MOLECULE", "cytotoxicity at 70.5 h [%]"],
 "data": [
  ["CN(C)Cc1ccccc1CN(C)C(=O)c1ccoc1", -8.04],
  ["CC(=O)c1cn(CCC(=O)Nc2c3c(nn2C)CSC3)c2ccccc12", 14.7],
  ["CSCCC(NC(=O)C1CC1)C(=O)N(C)Cc1ccsc1 (stereo unspecified)", 10.7],
  ["CC(C)=CCS(=O)(=O)Cc1noc(CC(C)C)n1", -1.31],
  ["CCOc1ccc(Cl)cc1CCNC(=O)c1ccc(=O)n(C)c1", -10.2],
  ["Cc1cccc(N2CC(c3nnc(N)s3)CC2=O)c1 (stereo unspecified)", -13.7]
]}

---

test: Human HepG2 cell viability assay in 384 well format; format: toxicity, cell-based; design: dose 125 nL, time 70.5 hour; concentration not given beside the values; settings: HepG2 cells, read-out: Inhibition
Attribute: cytotoxicity at 70.5 h
VALUE KIND: cytotoxicity at 70.5 h (%)

{"columns": ["COMPOUND", "VALUE KIND", "VAL"],
 "data": [
  ["COCCNC(=O)c1nn(-c2cccc(C(C)C)c2)cc1O", "cytotoxicity at 70.5 h", 41.1],
  ["c1ccc(O[C@H]2C[C@@H]3CN(Cc4cnccn4)C[C@@H]3C2)cc1", "cytotoxicity at 70.5 h", -0.72],
  ["Cc1cccc2c1NC(c1cnc(C3CCC3)s1)NC2=O (stereo unspecified)", "cytotoxicity at 70.5 h", -18.5],
  ["COc1ccc(C(CNC(=O)Nc2cn[nH]c2)N2CCOCC2)cc1 (stereo unspecified)", "cytotoxicity at 70.5 h", -4.89],
  ["CCN(C)c1ncnc2c1CCN(Cc1csc(C)n1)CC2", "cytotoxicity at 70.5 h", -12.4],
  ["COCc1cnc2n1CCN(C(=O)c1ocnc1C)C2C (stereo unspecified)", "cytotoxicity at 70.5 h", 10.1]
]}
